Tested on: Human immunodeficiency virus 1
Assay: Antiviral activity against HIV1 LAI 3B infected in human C8166 cells assessed as protection against virus-induced cytopathic effect by MTT assay
Type: functional, organism-based
Details: Human immunodeficiency virus 1, LAI 3B
pEC50: −log10 of the molar value.
The entries below come with measured pEC50 values attached.
readout.name: pEC50

molecule: CCCn1cc(C(=O)O)c(=O)c2c(O)c(Cc3cccc(Cl)c3F)ccc21
readout.name: pEC50
quantitative.result: 5.55

molecule: CC(C)n1cc(C(=O)O)c(=O)c2c(O)c(Cc3cccc(Cl)c3F)ccc21
readout.name: pEC50
quantitative.result: 5.35

molecule: O=C(O)c1cn(C2CC2)c2ccc(Cc3cccc(Cl)c3F)c(O)c2c1=O
readout.name: pEC50
quantitative.result: 5.70

molecule: CC(C)Cn1cc(C(=O)O)c(=O)c2c(O)c(Cc3cccc(Cl)c3F)ccc21
readout.name: pEC50
quantitative.result: 5.46

molecule: CCC(C)n1cc(C(=O)O)c(=O)c2c(O)c(Cc3cccc(Cl)c3F)ccc21 (configuration not stated)
readout.name: pEC50
quantitative.result: 5.74

molecule: CC(C)[C@@H](CO)n1cc(C(=O)O)c(=O)c2c(O)c(Cc3cccc(Cl)c3F)ccc21
readout.name: pEC50
quantitative.result: 6.89

molecule: CCCCCn1cc(C(=O)O)c(=O)c2c(O)c(Cc3cccc(Cl)c3F)ccc21
readout.name: pEC50
quantitative.result: 4.63

molecule: O=C(O)c1cn(C2CCCCC2)c2ccc(Cc3cccc(Cl)c3F)c(O)c2c1=O
readout.name: pEC50
quantitative.result: 5.55

molecule: CC(C)(C)n1cc(C(=O)O)c(=O)c2c(O)c(Cc3cccc(Cl)c3F)ccc21
readout.name: pEC50
quantitative.result: 5.34

molecule: CCCCn1cc(C(=O)O)c(=O)c2c(O)c(Cc3cccc(Cl)c3F)ccc21
readout.name: pEC50
quantitative.result: 5.09

molecule: COc1cc2c(cc1Cc1cccc(Cl)c1F)c(=O)c(C(=O)O)cn2[C@H](CO)C(C)C [ELVITEGRAVIR]
readout.name: pEC50
quantitative.result: 9.68

molecule: O=C(O)c1cn(C2CCCC2)c2ccc(Cc3cccc(Cl)c3F)c(O)c2c1=O
readout.name: pEC50
quantitative.result: 5.41

----------
The entries below come with measured log10 of CC50 values attached.
Assay: Cytotoxicity against human C8166 cells by MTT assay
Type: cell-based
readout.name: log10 of CC50 (log10 of the value in µM)

compound: O=C(O)c1cn(C2CC2)c2ccc(Cc3cccc(Cl)c3F)c(O)c2c1=O
quantitative.result: 1.59
//
compound: CC(C)n1cc(C(=O)O)c(=O)c2c(O)c(Cc3cccc(Cl)c3F)ccc21
quantitative.result: 1.42
//
compound: O=C(O)c1cn(C2CCCCC2)c2ccc(Cc3cccc(Cl)c3F)c(O)c2c1=O
quantitative.result: 1.24
//
compound: CC(C)Cn1cc(C(=O)O)c(=O)c2c(O)c(Cc3cccc(Cl)c3F)ccc21
quantitative.result: 1.29
//
compound: CC(C)(C)n1cc(C(=O)O)c(=O)c2c(O)c(Cc3cccc(Cl)c3F)ccc21
quantitative.result: 2.60
//
compound: CCCCn1cc(C(=O)O)c(=O)c2c(O)c(Cc3cccc(Cl)c3F)ccc21
quantitative.result: 1.30
//
compound: CC(C)[C@@H](CO)n1cc(C(=O)O)c(=O)c2c(O)c(Cc3cccc(Cl)c3F)ccc21
quantitative.result: 2.10
//
compound: CCC(C)n1cc(C(=O)O)c(=O)c2c(O)c(Cc3cccc(Cl)c3F)ccc21 (configuration not stated)
quantitative.result: 1.49
//
compound: O=C(O)c1cn(C2CCCC2)c2ccc(Cc3cccc(Cl)c3F)c(O)c2c1=O
quantitative.result: 1.09
//
compound: CCCCCn1cc(C(=O)O)c(=O)c2c(O)c(Cc3cccc(Cl)c3F)ccc21
quantitative.result: 1.60
//
compound: COc1cc2c(cc1Cc1cccc(Cl)c1F)c(=O)c(C(=O)O)cn2[C@H](CO)C(C)C [ELVITEGRAVIR]
quantitative.result: 1.24
//
compound: CCCn1cc(C(=O)O)c(=O)c2c(O)c(Cc3cccc(Cl)c3F)ccc21
quantitative.result: 1.38

----------
Experiment: Selectivity index, ratio of CC50 for human C8166 cells to EC50 for HIV1 LAI 3B
Type: toxicity, cell-based
Conditions: read-out: Ratio CC50/EC50
Under this convention, Satisfied denotes selectivity ratio strictly below 6 and Not satisfied denotes selectivity ratio at or above 6.

compound: CC(C)[C@@H](CO)n1cc(C(=O)O)c(=O)c2c(O)c(Cc3cccc(Cl)c3F)ccc21
qualitative.label: Not satisfied
//
compound: CCC(C)n1cc(C(=O)O)c(=O)c2c(O)c(Cc3cccc(Cl)c3F)ccc21 (configuration not stated)
qualitative.label: Not satisfied
//
compound: CC(C)(C)n1cc(C(=O)O)c(=O)c2c(O)c(Cc3cccc(Cl)c3F)ccc21
qualitative.label: Not satisfied
//
compound: CCCCCn1cc(C(=O)O)c(=O)c2c(O)c(Cc3cccc(Cl)c3F)ccc21
qualitative.label: Satisfied
//
compound: O=C(O)c1cn(C2CCCC2)c2ccc(Cc3cccc(Cl)c3F)c(O)c2c1=O
qualitative.label: Satisfied
//
compound: O=C(O)c1cn(C2CC2)c2ccc(Cc3cccc(Cl)c3F)c(O)c2c1=O
qualitative.label: Not satisfied
//
compound: CCCCn1cc(C(=O)O)c(=O)c2c(O)c(Cc3cccc(Cl)c3F)ccc21
qualitative.label: Satisfied
//
compound: CCCn1cc(C(=O)O)c(=O)c2c(O)c(Cc3cccc(Cl)c3F)ccc21
qualitative.label: Not satisfied
//
compound: CC(C)Cn1cc(C(=O)O)c(=O)c2c(O)c(Cc3cccc(Cl)c3F)ccc21
qualitative.label: Satisfied
//
compound: COc1cc2c(cc1Cc1cccc(Cl)c1F)c(=O)c(C(=O)O)cn2[C@H](CO)C(C)C [ELVITEGRAVIR]
qualitative.label: Not satisfied
